system: NCI/ADR-RES ovarian; assay: NCI-60 one-dose screen, 48 h; conditions: 10 µM unless noted
The panel holds about 83,000 compounds, 20% with a hit somewhere; the sample as a whole holds those more often. Calls of active or inactive are those of the source. The calls were made as follows: active = growth percent below 10; inactive = the rest.
Select the matching outcome among yes for active, no for inactive

Take a look at these entries with their results.
                                   compound      target_of_assay  assigned_category
0       C=CC(O)CN1CC1CC (centres undefined)  NCI/ADR-RES ovarian                 no
1                             NC(=O)C(Cl)Cl  NCI/ADR-RES ovarian                 no
2                   CC(C)(C)N(Cc1ccccc1)N=O  NCI/ADR-RES ovarian                 no
3  Cc1ccc(C[As+](c2ccccc2)(c2ccccc2)c2ccccc2)cc1  NCI/ADR-RES ovarian                 no

stdin: Hi, do you know how CC(=O)[O][Hg][c]1nc2c(c(=O)n(C)c(=O)n2C)n1C came out in this test?
stdout: no

stdin: For NCCc1cc(O)c(O)cc1O , what call appears in the results of this test?
stdout: no

stdin: Write down the call the test reported for this compound. Item: CC1(C)N=C(N)N=C(N)N1c1ccc(OCCCCNC(=O)c2ccc(S(=O)(=O)F)cc2)c(Cl)c1
stdout: no

---

test system: HL-60(TB) leukemia; assay: NCI-60 one-dose screen, 48 h; details: 10 µM unless noted
This is part of a sample that, as a whole, favours compounds with a hit. Of some 83,000 tested, about 20% had one in any assay. Active and inactive are the calls of the source. Rule for the calls: active = growth percent below 10; inactive = the rest.
Return exactly one item of active, inactive

>>> df
                                   compound     target_of_assay  assigned_category
0  COc1cc2nc(C(=O)N3CCCCC3)cc(Nc3ccccc3)c2cc1OC  HL-60(TB) leukemia           inactive

stdin: For O=C(CNC(=O)OCc1ccccc1)NCC(=O)Oc1ccc([N+](=O)[O-])cc1 , which call appears in the assay record?
stdout: inactive

stdin: I would be grateful if you could indicate the recorded call for O=C(Nc1ccc2[nH]c3ccccc3c2c1)c1ccccc1Cl .
stdout: active

stdin: What call does the record list for O=c1[nH]c2c(ccc3cnccc32)c2c1CCC2 ?
stdout: inactive

stdin: Fill in: this test's call for CCOc1ccc(N2C(N)=NC(N)=NC2(C)C)cc1 is ___
stdout: inactive

stdin: Recorded test call requested for CN1CCN(C(=O)OCCOCCOC(=O)N2CCN(C)CC2)CC1
stdout: inactive

---

system: SK-OV-3 ovarian; test: NCI-60 one-dose screen, 48 h; settings: 10 µM unless noted
The panel holds about 83,000 compounds, 20% with a hit somewhere; the sample as a whole holds those more often. Active and inactive are the calls of the source. Rule for the calls: active = growth percent below 10; inactive = the rest.
Classes to choose from: true (active), false (inactive)

Take a look at these entries with their results.
Compound	Assigned Category
O=C(N/N=C/c1ccc([N+](=O)[O-])o1)c1cc([N+](=O)[O-])cc([N+](=O)[O-])c1O	false
O=[N+]([O-])c1ccc2cnn(CSP(=S)(c3ccccc3)c3ccccc3)c2c1	false
COc1c(O)c2c3c(c1OC)-c1ccccc1CC3N(C)CC2 (configuration not stated)	false
OC1(c2ccccc2F)c2ccccc2C2=NCCN21 (configuration not stated)	false
CNC(=O)Oc1cc(C(C)C)ccc1Sc1ccc(C(C)C)cc1OC(=O)NC	false
CC(=O)C1C(=O)N(C)C(=O)N(C)C1=O	false

stdin: What did the test return for O=[As]c1ccc(C(=O)c2ccc(Oc3ccccc3)cc2)cc1 (configuration not stated) ?
stdout: true

stdin: Hi, sorry to bother you, what did the test record for CC(=O)Oc1ccc(Cl)cc1 ?
stdout: false

stdin: Fill in: this test's call for CCC(C)[C@H]1O[C@]2(C=C[C@@H]1C)C[C@@H]1C[C@@H](C/C=C(\C)[C@@H](OC3C[C@H](OC)C(O[C@H]4C[C@H](OC)[C@@H](O)[C@H](C)O4)[C@H](C)O3)[C@@H](C)/C=C/C=C3\CO[C@@H]4[C@H](O)C(C)=C[C@@H](C(=O)O1)[C@]34O)O2 (some centres not stated) is ___
stdout: false

stdin: Lab log entry: O=C(CCCN1CCC2(CC1)C(=O)NCN2c1ccc(F)cc1)c1ccc(F)cc1 — outcome as called in the assay?
stdout: false

stdin: Given Cc1ccc(N)cc1[As]=[As]c1cc(N)ccc1C (configuration not stated) , state the outcome it received in this test.
stdout: false

stdin: Which outcome did this test record for the compound [Br][Pb]([c]1ccccc1)([c]1ccccc1)[c]1ccccc1 ?
stdout: true

stdin: For C[C@]12CC[C@H]3[C@@H](C[C@@H]4N=C(c5ccc(O)cc5)S[C@@]45C[C@H](O)CC[C@]35C)[C@@H]1CC[C@@H]2O , what call appears in the results of this test?
stdout: false

stdin: Recorded test outcome, item C[C@]12C[C@H](O)[C@H]3[C@@H](CCC4=CC(=O)CC[C@@]43C)[C@@H]1CC[C@@H]2O
stdout: false

stdin: Identify the outcome logged in this assay for the compound shown: N#CC1=C(N)Oc2cc3c(cc2C1c1cccs1)OCO3 (configuration not stated)
stdout: true

stdin: Any idea what this test logged for O=CN1N=C(c2ccccc2)CC1c1sc(N(CCCl)CCCl)nc1Cl (configuration not stated) ?
stdout: false

stdin: Tell me the recorded outcome of this test for CC1(C)CC(=O)CC(C)(C)N1N=O .
stdout: false

stdin: Field: outcome | Entry: CN1CC2CCC(C1)C2=O
stdout: false

stdin: Check the results log: what was the call for O=S(=O)(Cl)c1ccccc1 (tested in a mixture with another compound) ?
stdout: false

stdin: Hi, sorry to bother you, what did the test record for CN1C(=O)NC(=O)C(N=Nc2ccc(Cl)cc2)C1=O (configuration not stated) ?
stdout: false

stdin: Per the records of this test, what outcome belongs to CC12CCC(=O)C=C1C(O)CC1C2CCC2(C)C(O)CCC12 (configuration not stated) ?
stdout: false

stdin: For this compound, state the assay outcome: CCN(CC)CCOc1c(C(C)C)cccc1C(C)C
stdout: false

stdin: For this compound, state the assay outcome: COc1ccccc1N1CCN(CCc2c[nH]c3cc4c(cc23)OCO4)CC1
stdout: false

stdin: Name the outcome recorded for N#CC(C#N)=Cc1ccc2ccccc2c1 in the assay.
stdout: false

---

tested on: K-562 leukemia; experiment: NCI-60 one-dose screen, 48 h; details: 10 µM unless noted
This is part of a sample that, as a whole, favours compounds with a hit. Of some 83,000 tested, about 20% had one in any assay. Calls of active or inactive are those of the source. Rule for the calls: active = growth percent below 10; inactive = the rest.
Outcomes you can answer with include only these: 1 (active), -1 (inactive)

Before answering, review these 2 worked examples.
>>> print(df.to_string())
                                   compound  assigned_category
0                             NC(=O)C(Cl)Cl                 -1
1  COc1ccc(C(=O)c2ccc([As]=O)cc2)cc1 (stereo not given)                  1

stdin: Which outcome did this test record for the compound C1CN1c1nc(N2CC2)nc(N2CC2)n1 ?
stdout: -1

stdin: Short answer needed: outcome of this test for CN1CC2CCC(C1)C2=O ?
stdout: -1

stdin: Hi, do you know how CC(C)(NC(=O)c1nn(CCCCCF)c2ccccc12)c1ccccc1 came out in this test?
stdout: -1

stdin: Hello, I am checking results. What call was entered for Cc1ccc(N)cc1[As]=[As]c1cc(N)ccc1C (stereo not given) ?
stdout: 1

stdin: State the result this test recorded for CCOc1c(Cl)cc(CNC(C)C(O)c2ccccc2)cc1OC (stereo not given) .
stdout: -1

stdin: State the result this test recorded for O=C1C=CC(=O)C2C1C1(Cl)C(Cl)=C(Cl)C2(Cl)C1(Cl)Cl (stereo not given) .
stdout: -1

stdin: Dear all, I need the recorded test outcome for CNC(=O)Oc1ccccc1 , thank you.
stdout: -1

stdin: Could you kindly confirm the outcome this assay logged for CC1(C)N=C(N)N=C(N)N1c1ccc(OCCCCNC(=O)c2ccc(S(=O)(=O)F)cc2)c(Cl)c1 ?
stdout: -1

stdin: What outcome does the record of this test show for C#CC1(O)CCC2(C)C(CCC3C4CCC(=O)C4(C)CCC32)C1 (stereo not given) ?
stdout: -1

stdin: Hey, what did the test say about O=S(=O)(c1ccc(Cl)cc1)C(Cl)(Cl)Cl ?
stdout: -1

---

system: HL-60(TB) leukemia; experiment: NCI-60 one-dose screen, 48 h; details: 10 µM unless noted
This is part of a sample that, as a whole, favours compounds with a hit. Of some 83,000 tested, about 20% had one in any assay. Active and inactive are the calls of the source. Rule for the calls: active = growth percent below 10; inactive = the rest.
Hi! Could you answer with just one of these? T for active, F for inactive

Here's what some known entries look like.
Compound	Assigned Category
COc1ccc2[nH]c(C(=O)N3CCN(C(=O)OCc4ccc5c(Br)cc(Br)c(O)c5n4)CC3)cc2c1	T
COc1c(O)cc2oc3cc(O)c(CC=C(C)C)c(O)c3c(=O)c2c1CC=C(C)C	F
O=c1[nH]c(-c2ccc(Cl)cc2)cn1-c1ccc(-n2cc(-c3ccc(Cl)cc3)[nH]c2=O)cc1	F
COc1cccc(NC(=O)Nc2ccc(Nc3ncnc4sc5c(c34)CCN(C(=O)CCl)C5)cc2)c1	F
Cc1ccc(/C=C(\C#N)n2nc3cccc(F)c3n2)cc1	F

stdin: Hey, what did the test say about O=C(NCCCNc1nccc(-n2ccc3cccnc32)n1)c1c(F)cccc1F ?
stdout: F
